// reported EC50 for each item listed
# Measured target: Ferroportin (Homo sapiens)
# Sequence (Q9NP59 whole entry): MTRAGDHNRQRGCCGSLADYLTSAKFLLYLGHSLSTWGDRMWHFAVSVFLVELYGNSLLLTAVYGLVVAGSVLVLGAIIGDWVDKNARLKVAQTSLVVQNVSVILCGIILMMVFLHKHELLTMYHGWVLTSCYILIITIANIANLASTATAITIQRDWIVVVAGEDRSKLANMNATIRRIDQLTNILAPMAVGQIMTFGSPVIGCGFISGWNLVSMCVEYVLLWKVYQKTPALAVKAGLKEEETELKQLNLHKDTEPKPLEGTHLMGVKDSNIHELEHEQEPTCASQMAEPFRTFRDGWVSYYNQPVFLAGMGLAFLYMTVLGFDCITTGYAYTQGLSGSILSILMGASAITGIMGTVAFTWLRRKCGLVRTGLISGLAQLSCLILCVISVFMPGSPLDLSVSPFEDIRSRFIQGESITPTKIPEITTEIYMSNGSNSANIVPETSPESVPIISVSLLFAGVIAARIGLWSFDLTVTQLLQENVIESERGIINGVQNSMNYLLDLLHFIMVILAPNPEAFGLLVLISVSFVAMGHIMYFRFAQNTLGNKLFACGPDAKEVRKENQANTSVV
# Assay protocol: Induction of human ferroportin degradation expressed in HEK293 cells after 24 hrs by flow cytometry
// return numeric value only (unit: nM, not printed)

# annotated cases, reported EC50 shown
Chemical structure: CCCCCCCCCCCCCCCCNC(=O)CN(CC(N)=O)C(=O)CCCCCNC(=O)[C@H](Cc1ccccc1)NC(=O)[C@H](CCCNC(=N)N)NC(=O)[C@H](CS/C(=C\C(=O)OCC)C(=O)OCC)NC(=O)[C@H](CCCNC(=N)N)NC(=O)C[C@@H]1CCCN1C(=O)[C@@H](NC(=O)[C@H](Cc1cnc[nH]1)NC(=O)[C@@H](NC(=O)CNC(=O)CO)[C@@H](C)O)C(c1ccccc1)c1ccccc1
Measured target: Ferroportin (Homo sapiens)
Unit text: nM
EC50: 10.4

Chemical structure: CCCCCCCCCCCCCCCCNC(=O)CN(CC(N)=O)C(=O)CCCCCNC(=O)[C@H](Cc1ccccc1)NC(=O)[C@H](CCCNC(=N)N)NC(=O)[C@H](CS/C(=C\C(=O)OC(C)(C)C)C(=O)OC(C)(C)C)NC(=O)[C@H](CCCNC(=N)N)NC(=O)C[C@@H]1CCCN1C(=O)[C@@H](NC(=O)[C@H](Cc1cnc[nH]1)NC(=O)[C@@H](NC(=O)CNC(=O)CO)[C@@H](C)O)C(c1ccccc1)c1ccccc1
Measured target: Ferroportin (Homo sapiens)
Unit text: nM
EC50: 6.3

Chemical structure: CCCCCCCCCCCCCCCCNC(=O)CN(CC(N)=O)C(=O)CCCCCNC(=O)[C@H](Cc1ccccc1)NC(=O)[C@H](CCCNC(=N)N)NC(=O)[C@H](CS/C(=C\P(=O)(OCC)OCC)P(=O)(OCC)OCC)NC(=O)[C@H](CCCNC(=N)N)NC(=O)C[C@@H]1CCCN1C(=O)[C@@H](NC(=O)[C@H](Cc1cnc[nH]1)NC(=O)[C@@H](NC(=O)CNC(=O)CO)[C@@H](C)O)C(c1ccccc1)c1ccccc1
Measured target: Ferroportin (Homo sapiens)
Unit text: nM
EC50: 1.1

Please find the next compound below.
What value of EC50 has been recorded for this entry: "CCCCCCCCCCCCCCCCNC(=O)CN(CC(N)=O)C(=O)CCCCCNC(=O)[C@H](Cc1ccccc1)NC(=O)[C@H](CCCNC(=N)N)NC(=O)[C@H](CS/C(=C\S(=O)(=O)C(C)(C)C)S(=O)(=O)C(C)(C)C)NC(=O)[C@H](CCCNC(=N)N)NC(=O)C[C@@H]1CCCN1C(=O)[C@@H](NC(=O)[C@H](Cc1cnc[nH]1)NC(=O)[C@@H](NC(=O)CNC(=O)CO)[C@@H](C)O)C(c1ccccc1)c1ccccc1" 10
